molecular target: T1, CD3 epsilon homodimer protein (UniProt P07766 23-126); test: SPR Biacore T200, CD3e homodimer on chip, vs unaltered GLS3000 antibody
T1 construct: also called CD3 (CD3 epsilon)
T1 sequence (P07766 23-126): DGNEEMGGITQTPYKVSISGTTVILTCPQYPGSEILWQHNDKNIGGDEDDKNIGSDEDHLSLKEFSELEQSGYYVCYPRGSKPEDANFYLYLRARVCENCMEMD
Entries and their ratio of amounts bound (Z=Y/X) values follow.
No unit in the answer, only the number.

A selection of reference data follows.
| BINDER | ratio of amounts bound (Z=Y/X) |
| --- | --- |
| GLS3000 N28W (antibody, name in Kabat numbering, V domains shown, one-arm IgG as m2) VH: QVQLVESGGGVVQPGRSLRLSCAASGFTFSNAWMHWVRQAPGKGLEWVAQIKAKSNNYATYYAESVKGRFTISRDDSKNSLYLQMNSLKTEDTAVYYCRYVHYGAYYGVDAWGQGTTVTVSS VL: DIVMTQSPLSLPVTPGEPASISCRSSQSLVHSWRNTYLHWYQQKPGQAPRLLIYKVSNRFSGVPDRFSGSGSGTDFTLKISRVEAEDVGVYYCGQGTQVPYTFGQGTKLEIK | 0.41 |
| GLS3000 T31P (antibody, name in Kabat numbering, V domains shown, one-arm IgG as m2) VH: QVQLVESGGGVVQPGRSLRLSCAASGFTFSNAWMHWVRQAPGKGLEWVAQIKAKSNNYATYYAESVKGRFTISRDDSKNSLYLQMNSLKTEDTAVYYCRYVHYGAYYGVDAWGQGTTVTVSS VL: DIVMTQSPLSLPVTPGEPASISCRSSQSLVHSNRNPYLHWYQQKPGQAPRLLIYKVSNRFSGVPDRFSGSGSGTDFTLKISRVEAEDVGVYYCGQGTQVPYTFGQGTKLEIK | 0.31 |

Q: Report ratio of amounts bound (Z=Y/X) for GLS3000 V94H (antibody, name in Kabat numbering, V domains shown, one-arm IgG as m2) VH: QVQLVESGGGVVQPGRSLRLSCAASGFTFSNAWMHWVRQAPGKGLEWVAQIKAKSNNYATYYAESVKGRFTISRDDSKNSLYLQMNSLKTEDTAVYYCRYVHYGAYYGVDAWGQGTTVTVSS VL: DIVMTQSPLSLPVTPGEPASISCRSSQSLVHSNRNTYLHWYQQKPGQAPRLLIYKVSNRFSGVPDRFSGSGSGTDFTLKISRVEAEDVGVYYCGQGTQHPYTFGQGTKLEIK please.
A: 0.78
